Measured melting point of individual entries

COMPOUND	melting point
COc1ccc2ccc(N3C(=O)c4ccccc4C3OCC(=O)NCCC(C)C)nc2n1 (stereo unspecified)	136 °C
NS(=O)(=O)c1ccccc1CSC1=NCCS1	123 to 125 °C
O=C1C=C(c2ccccc2)NCCN1	204 to 206 °C

Exam item: Entry Cc1c(-c2ccccc2)oc2c(CS(=O)CCCl)cccc2c1=O (stereo unspecified) needs its melting point filled in; supply it.
Marked response: 142 to 145 °C

Exam item: Tell me measured melting point for Cc1ccc(S(=O)(=O)OCC2COc3ccc([N+](=O)[O-])c(C=CC=O)c3O2)cc1 (stereo unspecified) please.
Marked response: 138 to 140 °C

Exam item: Using known records, supply melting point for C[N+]([O-])=C(Cn1ccnc1)c1ccc2ccccc2c1
Marked response: 112 to 114 °C

Exam item: Provide melting point value for the following compound: N#Cc1n[nH]c2nc(N3CCN(CCO)CC3)ccc12
Marked response: 232 to 233 °C

Exam item: Supply recorded melting point for CN1CCN(N=C2CC(c3ccc(C(F)(F)F)cc3)Cc3[nH]c4ccc(Cl)cc4c(=O)c32)CC1 (stereo unspecified) here.
Marked response: 330 °C

Exam item: Using known records, supply melting point for CNC(=O)n1nc(Oc2ccc(C(F)(F)F)cc2[N+](=O)[O-])cc1C(F)(F)F
Marked response: 102 to 104 °C

Exam item: Name the recorded melting point of the item Cc1cc(C)c(C2C(=O)NC3(CCN(N(C)C)CC3)C2=O)c(C)c1 (stereo unspecified) in your answer.
Marked response: 237 to 241 °C

Exam item: Report melting point, nothing else, for this compound: COc1ccc(C(=O)Nc2ccccc2C(=O)c2ccccn2)cc1
Marked response: 132 to 133 °C

Exam item: Look up and report measured melting point for this entry: CC(C)C(=O)NCC(C)(C)N
Marked response: 134 to 138 °C

Exam item: Please report melting point for the following compound: Cc1cc(O)ccc1-c1ccc2cc(O)ccc2c1
Marked response: 191 to 193 °C

Exam item: Identify measured melting point associated with Cc1ccc2c(Sc3ccc(Cl)c(Cl)c3)c(C(=O)O)[nH]c2c1
Marked response: 252 to 255 °C

Exam item: Indicate its recorded melting point; the compound in question is Cc1ccc(CCOc2cccc3c(Cl)ccnc23)cc1
Marked response: 74 to 75 °C

Exam item: Please indicate melting point recorded for O=C(O)c1cccc(-c2ccc3c(c2)C(Oc2ccc(Cl)cc2Cl)CC3)c1 (stereo unspecified)
Marked response: 173 to 174 °C

Exam item: Consider the compound Cc1cc(C(=O)NC(=O)NC2CCCCC2)no1 . State its measured melting point.
Marked response: 180 °C

Exam item: Using the record for O=C1C=CC(OC(=O)c2ccc([N+](=O)[O-])cc2)(c2nc3ccccc3s2)C=C1 , state its measured melting point.
Marked response: 138 °C

Exam item: Annotate the compound CC1=NNC(=O)CC1c1ccc(OC2CCN(C(=O)OC(C)(C)C)CC2)cc1 (stereo unspecified) with its measured melting point.
Marked response: 165 to 167 °C

Exam item: State its melting point: CC(C)(CCl)C(=O)N(O)Cc1ccc(Cl)cc1Cl
Marked response: 103 to 106 °C

Exam item: Recall and state the measured melting point for CCOC(=O)NC(=O)c1nc(Cl)c(Cl)[nH]1 .
Marked response: 208 °C
